test system: A549 human lung cancer cells; experiment: MTT cell growth inhibition, A549; type: cell-based; conditions: Homo sapiens; 24 h; Lung A549; mean ± SEM of three determinations; read-out: IC50 for cell growth inhibition
Measure Name: IC50 (µM)

>  <Molecule>
COc1ccc2cc([C@H](C)C(=O)O)ccc2c1 [NAP, naproxen, reference compound]

>  <Measure Name>
IC50

>  <Censoring Sign>
=

>  <Val>
2650

$$$$
>  <Molecule>
CC(=O)Oc1ccccc1C(=O)O [ASA, aspirin, reference compound]

>  <Measure Name>
IC50

>  <Censoring Sign>
>

>  <Val>
5000

$$$$

----------
IC50 reference
tested on: HCT-15 human colon adenocarcinoma cells; assay: MTT cell growth inhibition, HCT 15; type: cell-based; conditions: Homo sapiens, HCT-15, 24 h, read-out: IC50 for cell growth inhibition
Measure Name: IC50 (µM)

>  <Compound>
CCOP(=O)(OCC)OCCSSCCOC(=O)c1ccccc1OC(C)=O

>  <Val>
0.075

$$$$
>  <Compound>
CCOP(=O)(OCC)OCCSSCCOC(=O)C(C)c1ccc2cc(OC)ccc2c1 (centres unmarked)

>  <Val>
0.12

$$$$

----------
tested on: BxPC-3 human pancreatic cancer cells; test: MTT cell growth inhibition, BxPC3; type: cell-based; details: Homo sapiens, BXPC-3; 24 h; Pancreas BxPC3; mean ± SEM of three determinations; read-out: IC50 for cell growth inhibition
pIC50: −log10 of the molar value.
Entries and their pIC50 values follow.
Measure Name: pIC50

>  <Compound>
CC(=O)Oc1ccccc1C(=O)O [ASA, aspirin, reference compound]

>  <Measure Name>
pIC50

>  <Censoring Sign>
<

>  <Val>
2.30

$$$$
>  <Compound>
COc1ccc2cc([C@H](C)C(=O)O)ccc2c1 [NAP, naproxen, reference compound]

>  <Measure Name>
pIC50

>  <Censoring Sign>
=

>  <Val>
2.59

$$$$

----------
system: HT-29 human colon adenocarcinoma cells; assay: MTT cell growth inhibition, HT-29; type: cell-based; settings: Homo sapiens; 24 h; Colon HT-29; mean ± SEM of three determinations; read-out: IC50 for cell growth inhibition
Measure Name: IC50

>  <Molecule>
CC(=O)Oc1ccccc1C(=O)O [ASA, aspirin, reference compound]

>  <Val>
> 5 mM

$$$$

The measurements presented in this section are drawn from patent US10023555B2.
